All values here come from PubChem BioAssay AID1814.

# PROCEDURE_TEXT: Activators via SNCA 5'UTR binding, MLPCN (AID 1814)
# TEST_CONDITIONS: alpha-synuclein 5'UTR reporter, activators screen; hits give low values; tested at 7.5 µM
Out of some 300,000 compounds screened, about 22,000 (7.3%) were called active. Another 2% or so got no clear call; they are omitted. Only a selection was taken, and actives are over-represented in it overall.
MEASURED_PARAMETER: activity score (%)
Numbers only, in %.

List activity score for every entry below, keeping the order given.
1. CC(=O)Nc1ccc(NC(=O)CN2CCCC(C)C2)c(Cl)c1 (stereo unspecified)
2. Cc1nonc1NC(=O)CSc1nc2ccccc2cc1C#N
3. c1ccc(CN=C2Nc3ccccc3CS2)nc1
4. COc1cccc(NCCC(=O)c2cccc([N+](=O)[O-])c2)c1
5. COCc1cc(C)nc(SCC(=O)Nc2cccc(C)c2)c1C#N
6. CCOC(=O)c1sc(-c2cccc([N+](=O)[O-])c2)cc1N

Reply:
1. -105
2. -91.1
3. -111
4. -115
5. -67.6
6. -129

List activity score for every entry below, keeping the order given.
1. Cc1ccc(SCC(=O)c2cc(C)c(OC(=S)N(C)C)c(C)c2)cc1
2. O=C1N/C(=C/c2cccn2-c2ccccc2)C(=O)N1c1cccc(Cl)c1
3. COc1ccc(CCc2nc(-c3cccs3)no2)cc1
4. Cc1ccc(NC(=O)c2ccn(C(=O)Nc3ccccc3)n2)c(C)c1
5. Cc1c(N=Nc2ccc(N(C)C)cc2)c(=O)n(-c2ccccc2)n1C

Reply:
1. -155
2. -65.3
3. -148
4. -69.3
5. -101

====

Exercise: state measured activity score for each of the compounds provided.
# PROCEDURE_TEXT: Activators via SNCA 5'UTR binding, MLPCN (AID 1814)
# TEST_CONDITIONS: alpha-synuclein 5'UTR reporter, activators screen; hits give low values; tested at 7.5 µM
Out of some 300,000 compounds screened, about 22,000 (7.3%) were called active. Inconclusive results (about 2%) are left out. Many of the other results were omitted from the sample, so actives are more common in it than they were.
Answers are plain numbers, in %.

Below, each entry is followed by its recorded activity score result.
COMPOUND | MEASURED_PARAMETER | READOUT_VALUE
COc1ccccc1-c1nnc(SCC(=O)Nc2ccccc2)o1 | activity score | -187
CCS(=O)(=O)C1=NSC2=NC(=O)/C(=C\c3cc(C)n(-c4cccc(OC)c4)c3C)C(=N)N21 | activity score | -130
COc1ccc(C(CC(=O)c2ccccc2)S(=O)(=O)c2ccccc2)cc1 (stereo not drawn) | activity score | -120

List activity score for every entry below, keeping the order given.
1. COC(=O)c1ccc(CSc2nncn2C)cc1
2. COc1ccc(-c2csc(NC(=O)COC(=O)c3ccc(Br)o3)n2)cc1
3. CCc1ccc(Oc2coc3cc(OC(=O)c4cc5ccccc5oc4=O)ccc3c2=O)cc1
4. Cn1c(=O)n(C)c2cc(C(=O)Nc3ccc4c(c3)OCO4)ccc21
5. COc1ccc(-c2csc(NC(=O)COC(=O)Cc3ccc(Cl)cc3Cl)n2)cc1
6. S=C(NCc1ccco1)Nc1ccc2c(c1)OCCO2
7. CC(C)Cc1cc(C(=O)Nc2cc(Br)ccc2O)no1
8. FC(F)Oc1ccc(NC(=S)NCc2ccco2)cc1Cl

Reply:
1. -112
2. -106
3. -67
4. -191
5. -99.4
6. -105
7. -135
8. -62.2

List activity score for every entry below, keeping the order given.
1. Cc1cc(C(=O)NCCc2ccc(Cl)cc2)c(C)o1
2. C/C(=N\NC(=O)Cc1ccc(Cl)cc1)c1ccccn1

Reply:
-131
85.6

List activity score for every entry below, keeping the order given.
1. CCCCOc1ccc(-c2nnc(-c3ccco3)o2)cc1
2. C/C(=N\NC(=O)c1ccccc1F)c1ccccn1
3. Cc1cccc(C(=O)Nc2ccc(C(=O)/C=C/c3cccs3)cc2)c1
4. C/C(=N\NC(=O)c1ccc2ccccc2c1)c1cccnc1
5. Clc1ccccc1SCc1nc2ccccc2[nH]1
6. NC(=O)c1sc2nc3c(c(-c4ccccc4)c2c1N)CCC3
7. COc1ccc(-c2nc3cc([N+](=O)[O-])ccc3o2)cc1OC
8. COc1ccc(-c2csc3nc(-c4ccccc4F)oc(=O)c23)cc1OC

Reply:
1: 60.2; 2: 83; 3: -92.4; 4: -68.8; 5: -90.6; 6: 56.2; 7: -65.4; 8: -63.1

List activity score for every entry below, keeping the order given.
1. Cc1ccc(-c2cc(C(=O)NCc3cn(C)nc3C)c3cc(Br)ccc3n2)cc1
2. Nc1nonc1-n1nnc(C(=O)N/N=C/c2cc(Br)ccc2O)c1CSC1=NCCS1
3. CN(C)c1ccnc2sc(C(=O)c3ccccc3)c(N)c12
4. O=C(NCCc1ccccc1)c1ccc2c(c1)N(Cc1ccccc1)CCS2
5. CCN(CC)S(=O)(=O)c1ccc(-c2cn3ccc(C)cc3n2)cc1
6. N#Cc1ccccc1NC(=O)c1ccc2c(c1)OCO2
7. Cc1ccc(OC(=O)c2c(C)nn(-c3ccccc3)c2C)cc1

Reply:
1. -87.5
2. 94.1
3. -138
4. -105
5. -169
6. -87.9
7. -131
